System: HCC-2998 colon
Assay: NCI tumour cell line growth inhibition, 48 h
just bin them by TGI: Low: < 8 µM; Mid: ≥ 8 µM and < 40 µM; High: ≥ 40 µM

Prompt: Consider CCSc1c2ccccc2c(-c2nc(F)nc(F)n2)n1CCc1ccccc1 . To which TGI class does it belong?
Response: High

Prompt: And what about the compound CC1=C(C(=O)Nc2cc(F)c(F)cc2F)C(c2ccc([N+](=O)[O-])cc2)C(C(=O)Nc2cc(F)c(F)cc2F)=C(C)N1 ?
Response: High

Prompt: Please do the same for CCCCCCCCCCCC[n+]1ccc2ccccc2c1 as well.
Response: Low

Prompt: What do you have for CCOc1ccc(NC(=O)CC2C(=O)Nc3ccccc3S2(=O)=O)cc1 (configuration not stated) ?
Response: High

Prompt: Another: CC1C(c2ccc(Cl)cc2)c2cc3c(cc2OC1N1CCOCC1)OCO3 (configuration not stated)
Response: High

Prompt: Repeat for the following compound: Cc1cc(Cl)nc(N(CCCNc2ccnc3cc(Cl)ccc23)Cc2ccco2)n1
Response: Low

Prompt: Same question, O=C(NC(=S)NC(=O)c1cc(O)c(O)c(O)c1)c1cc(O)c(O)c(O)c1 this time
Response: High

Prompt: Cool, now CN(C)c1cc[n+](-c2nc(/N=C(\[O-])C(F)(F)F)nc3c2ncn3C2CC(O)C(CO)O2)cc1 (configuration not stated)
Response: High

Prompt: Next compound up: COc1cc(CCc2ccc(N)cc2)cc(OC)c1OC
Response: High

Prompt: Likewise for CCOC(=O)C1(C)CCCCC(=O)N1 (configuration not stated) ?
Response: High

Prompt: Proceed to CC(=O)[CH-]C(=O)c1ccccc1.CC(=O)[CH-]C(=O)c1ccccc1.C[C@]12CCC(=O)C=C1CC[C@@H]1C2CC[C@@]2(C)C1CC[C@]2(C)[O-].C[C@]12CCC(=O)C=C1CC[C@@H]1C2CC[C@@]2(C)C1CC[C@]2(C)[O-].Cl.[Ti+4] (some centres not stated)
Response: High

Prompt: CCN1CCN(C(=O)[C@]23CCC(C)(C)C[C@@H]2C2=CC[C@@H]4[C@@]5(C)C/C(=C/c6ccncc6)C(=O)C(C)(C)[C@@H]5CC[C@@]4(C)[C@]2(C)CC3)CC1 ?
Response: Low

Prompt: Another compound to check: O=[N+]([O-])c1ccc(O)c(/C=N/NC(=S)N2CCCCC2)c1
Response: Mid

Prompt: Param item: CO[C@H]1C[C@@H]2CC[C@@H](C)[C@@](O)(O2)C(=O)C(=O)N2CCCC[C@H]2C(=O)O[C@H]([C@H](C)C[C@@H]2CC[C@@H](OCCO)[C@H](OC)C2)CC(=O)[C@H](C)C=C(C)[C@@H](O)[C@@H](OC)C(=O)[C@H](C)C[C@H](C)/C=C/C=C/C=C1C
Response: Mid

Prompt: Try this compound next: C[Si](C)(C)C1=C([Si](C)(C)C)C(Cl)(Cl)C1=O
Response: Mid

---

System: HT29 colon
Test: NCI tumour cell line growth inhibition, 48 h
Hi there, I'd appreciate the recorded TGI for every entry that follows.
The figure you give is taken to be in µM; do not add the unit.

Prompt: # query: TGI of entry CC[C@H](C)[C@H](NC(=O)[C@H]1CCCCN1C)C(=O)N(C)[C@H](C[C@@H](OC(C)=O)c1nc(C(=O)N[C@@H](Cc2ccccc2)C[C@H](C)C(=O)O)cs1)C(C)C
Response: 0.002

Prompt: Likewise for CCOC(=O)C1=C(C)N(c2ccc(OC)cc2)C2(O)C=CC(=O)C3=C(O)c4ccccc4C(=O)C312 (centres undefined) ?
Response: 32.7

Prompt: Thanks! And CN(C)CCNC(=O)c1cccc2c1Oc1c(cccc1[N+](=O)[O-])O2 ?
Response: 5.78

Prompt: What about CCOC(=O)Oc1ccc2c(c1)c(=O)c1c(NCCN(CC)CC)ccc3nnn2c31 ?
Response: 11.7
